- assay target: mu opiate receptor (MOR) (Rattus norvegicus)
- Construct: from tissue; host or cells: striatum (membrane preparation)
- Type: biochemical
assay readout: % DAMGO (0.1 μM) (%)
Expressed in %, but write only the number.

Prompt: # query: % DAMGO (0.1 μM) of entry CC1CCC(C(C)C)C(OCC(O)CN2CCSC2)C1 (centres unmarked) [Compound A0002]
Completion: 104.1

Prompt: Any idea what its % DAMGO (0.1 μM) is? The compound is CC(=O)c1ccc(C(=O)N2CCC3(CC2)OCCN3S(=O)(=O)c2ccc(C(C)=O)cc2)cc1 [Compound C0052]
Completion: 74.8

Prompt: Report % DAMGO (0.1 μM) for CN(C)c1cccc(OCC(O)CN2CCc3ccccc3C2)c1 (centres unmarked) [Compound A0050] please.
Completion: 77.0

Prompt: I am curious: what % DAMGO (0.1 μM) value has been reported for CC1CCC(C(C)C)C(OCC(O)CN2CCN(CCN3CCOCC3)CC2)C1 (centres unmarked) [Compound A0011] ?
Completion: 158.2

Prompt: Given the compound CC(O)c1ccc(S(=O)(=O)N2CCC3(CC2)OCCN3S(=O)(=O)c2ccc(C(C)O)cc2)cc1 (centres unmarked) [Compound C0051] , what is its reported % DAMGO (0.1 μM)?
Completion: 65.1

Prompt: What % DAMGO (0.1 μM) value was documented for this compound, CC1CCC(C(C)C)C(OCC(O)CN2CCCCC2C)C1 (centres unmarked) [Compound A0007] ?
Completion: 68.3

Prompt: Consider the compound shown here: CC(=O)Nc1ccc(S(=O)(=O)N2CCC3(CC2)OCCN3S(=O)(=O)c2ccc(NC(C)=O)cc2)cc1 [Compound C0013] What is its recorded % DAMGO (0.1 μM)?
Completion: 91.0

Prompt: Name the reported % DAMGO (0.1 μM) value associated with the compound CC1CN(CC(O)COc2cccc(N(C)C)c2)CC(C)O1 (centres unmarked) [Compound A0042]
Completion: 75.2

====

- assay target: mu opiate receptor (MOR) (Rattus norvegicus, UniProt P33535)
- Construct: from tissue; host or cells: striatum (membrane preparation)
- Sequence (P33535 whole entry): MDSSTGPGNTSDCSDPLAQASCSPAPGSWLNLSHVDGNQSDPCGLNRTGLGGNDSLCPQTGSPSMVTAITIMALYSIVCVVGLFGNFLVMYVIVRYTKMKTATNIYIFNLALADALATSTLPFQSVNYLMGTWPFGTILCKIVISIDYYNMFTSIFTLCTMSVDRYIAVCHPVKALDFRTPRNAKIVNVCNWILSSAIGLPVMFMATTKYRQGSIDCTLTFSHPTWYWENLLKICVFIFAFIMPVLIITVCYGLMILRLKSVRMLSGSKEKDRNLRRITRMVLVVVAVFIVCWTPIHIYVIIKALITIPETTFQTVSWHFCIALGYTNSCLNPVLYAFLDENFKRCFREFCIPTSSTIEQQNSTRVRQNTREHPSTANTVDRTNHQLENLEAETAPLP
- Format: biochemical
- study conditions: [35S]GTPγS binding to Gαo in striatal membranes; compound 0.1 μM
assay readout: Concentration of FLNA-Binding Compound as Agonist 0.1 μM (%)
Numbers only here, please. The scale is %.

Prompt: Find Concentration of FLNA-Binding Compound as Agonist 0.1 μM (mu opiate receptor (MOR) (Rattus norvegicus, UniProt P33535)) for the entry CC(C)c1ccc(S(=O)(=O)N2CCC3(CC2)OCCN3S(=O)(=O)c2ccc(C(C)C)cc2)cc1 [Compound C0007]
Completion: 79.1

Prompt: Form field - read-out: Concentration of FLNA-Binding Compound as Agonist 0.1 μM; system: mu opiate receptor (MOR) (Rattus norvegicus, UniProt P33535); submitted item: CCOc1ccc(C(=O)CC2c3c(cc4c(c3OC)OCO4)CC[N+]2(C)C)cc1F (centres unmarked) [Compound B0020]
Completion: 51.6

Prompt: What reported Concentration of FLNA-Binding Compound as Agonist 0.1 μM corresponds to COc1cccc(OC)c1C(=O)CC1c2c(cc3c(c2OC)OCO3)CC[N+]1(C)C (centres unmarked) [Compound B0023] on mu opiate receptor (MOR) (Rattus norvegicus, UniProt P33535)?
Completion: 166.1

Prompt: Hello, I am looking for reported Concentration of FLNA-Binding Compound as Agonist 0.1 μM with mu opiate receptor (MOR) (Rattus norvegicus, UniProt P33535) for CC1CCN(CC(O)COC2CC(C)CCC2C(C)C)CC1 (centres unmarked) [Compound A0006] . Could you help?
Completion: 170.0

Prompt: Item CC1CCC(C(C)C)C(OCC(O)CN2CCCCC2C)C1 (centres unmarked) [Compound A0007] with mu opiate receptor (MOR) (Rattus norvegicus, UniProt P33535) - Concentration of FLNA-Binding Compound as Agonist 0.1 μM?
Completion: 102.0

Prompt: API: value(readout=Concentration of FLNA-Binding Compound as Agonist 0.1 μM, system=mu opiate receptor (MOR) (Rattus norvegicus, UniProt P33535)) for record CC1CCC(C(C)C)C(OCC(O)CN2CCCC2=O)C1 (centres unmarked) [Compound A0035]
Completion: 120.6

Prompt: Reported Concentration of FLNA-Binding Compound as Agonist 0.1 μM for mu opiate receptor (MOR) (Rattus norvegicus, UniProt P33535), given COc1c2c(cc3c1C(CC(O)Cc1ccccc1C)N(C)CC3)OCO2 (centres unmarked) [Compound B0054] ?
Completion: 157.8

Prompt: Please provide the recorded Concentration of FLNA-Binding Compound as Agonist 0.1 μM for COCOc1ccc(CCC(=O)CC2c3c(cc4c(c3OC)OCO4)CC[N+]2(C)C)cc1 (centres unmarked) [Compound B0040] , tested on mu opiate receptor (MOR) (Rattus norvegicus, UniProt P33535).
Completion: 146.0
